Source listed as patent US20090057619A1.

# MEASUREMENT DESCRIPTION: pKa of BTB estimated by spectrophotometric titration in water and in model dishwashing detergent
# Format: physicochemical
# RUN CONDITIONS: model dishwashing detergent diluted with deionized water, detergent conc 10 %, model dishwashing detergent (approx. 30% surfactant)
REPORTED PROPERTY: pKa
Answer with the value's number alone.

Ask: Any idea what its pKa is? The compound is Cc1c(C2(c3cc(C(C)C)c(O)c(Br)c3C)OS(=O)(=O)c3ccccc32)cc(C(C)C)c(O)c1Br [BTB, bromothymol blue]
Result: 9.4

* * *

# MEASUREMENT DESCRIPTION: pKa of BTB estimated by spectrophotometric titration in water and in model dishwashing detergent
# Type: physicochemical
# RUN CONDITIONS: water without detergent, detergent conc 0 % (water, absence of detergent)
REPORTED PROPERTY: pKa

Ask: Any idea what its pKa is? The molecule is Cc1c(C2(c3cc(C(C)C)c(O)c(Br)c3C)OS(=O)(=O)c3ccccc32)cc(C(C)C)c(O)c1Br
Result: 7.3
